target: recombinant human dihydrofolate reductase (hDHFR) (Homo sapiens, UniProt P00374); construct: commercial recombinant enzyme (R&D, Bio-Techne); experiment: NADPH oxidation, absorbance at […] nm
Sequence (P00374 whole entry): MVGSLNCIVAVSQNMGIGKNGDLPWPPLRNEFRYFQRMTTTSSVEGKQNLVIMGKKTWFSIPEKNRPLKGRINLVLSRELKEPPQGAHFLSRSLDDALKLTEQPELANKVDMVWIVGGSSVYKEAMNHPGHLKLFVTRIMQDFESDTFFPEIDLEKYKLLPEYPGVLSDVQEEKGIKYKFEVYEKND
measurement kind: IC50 (nM)

Example results:
compound smiles	unit name	IC50
CN(Cc1cnc2nc(N)nc(N)c2n1)c1ccc(C(=O)NCCCCCC(=O)O)cc1	nM	1210
CN(Cc1cnc2nc(N)nc(N)c2n1)c1ccc(C(=O)NCCCC(=O)O)cc1	nM	10

1: CN(Cc1cnc2nc(N)nc(N)c2n1)c1ccc(C(=O)NCCCCCCCC(=O)O)cc1
2: CN(Cc1cnc2nc(N)nc(N)c2n1)c1ccc(C(=O)NCCS(=O)(=O)O)cc1
Task item: Compare IC50: is it lower for 1 or for 2 ? // caller expects the label of the chosen entry
Reply: 1
